Documented IC50 across a set of molecules
SYSTEM_NAME: NR1/NR2B receptor (Rattus norvegicus, UniProt P35439+Q00960)
Construct: from tissue; host or cells: rat cerebral cortex membranes (male Slc: Wistar rat)
Sequence (Q00960 27-1482, other chains not shown): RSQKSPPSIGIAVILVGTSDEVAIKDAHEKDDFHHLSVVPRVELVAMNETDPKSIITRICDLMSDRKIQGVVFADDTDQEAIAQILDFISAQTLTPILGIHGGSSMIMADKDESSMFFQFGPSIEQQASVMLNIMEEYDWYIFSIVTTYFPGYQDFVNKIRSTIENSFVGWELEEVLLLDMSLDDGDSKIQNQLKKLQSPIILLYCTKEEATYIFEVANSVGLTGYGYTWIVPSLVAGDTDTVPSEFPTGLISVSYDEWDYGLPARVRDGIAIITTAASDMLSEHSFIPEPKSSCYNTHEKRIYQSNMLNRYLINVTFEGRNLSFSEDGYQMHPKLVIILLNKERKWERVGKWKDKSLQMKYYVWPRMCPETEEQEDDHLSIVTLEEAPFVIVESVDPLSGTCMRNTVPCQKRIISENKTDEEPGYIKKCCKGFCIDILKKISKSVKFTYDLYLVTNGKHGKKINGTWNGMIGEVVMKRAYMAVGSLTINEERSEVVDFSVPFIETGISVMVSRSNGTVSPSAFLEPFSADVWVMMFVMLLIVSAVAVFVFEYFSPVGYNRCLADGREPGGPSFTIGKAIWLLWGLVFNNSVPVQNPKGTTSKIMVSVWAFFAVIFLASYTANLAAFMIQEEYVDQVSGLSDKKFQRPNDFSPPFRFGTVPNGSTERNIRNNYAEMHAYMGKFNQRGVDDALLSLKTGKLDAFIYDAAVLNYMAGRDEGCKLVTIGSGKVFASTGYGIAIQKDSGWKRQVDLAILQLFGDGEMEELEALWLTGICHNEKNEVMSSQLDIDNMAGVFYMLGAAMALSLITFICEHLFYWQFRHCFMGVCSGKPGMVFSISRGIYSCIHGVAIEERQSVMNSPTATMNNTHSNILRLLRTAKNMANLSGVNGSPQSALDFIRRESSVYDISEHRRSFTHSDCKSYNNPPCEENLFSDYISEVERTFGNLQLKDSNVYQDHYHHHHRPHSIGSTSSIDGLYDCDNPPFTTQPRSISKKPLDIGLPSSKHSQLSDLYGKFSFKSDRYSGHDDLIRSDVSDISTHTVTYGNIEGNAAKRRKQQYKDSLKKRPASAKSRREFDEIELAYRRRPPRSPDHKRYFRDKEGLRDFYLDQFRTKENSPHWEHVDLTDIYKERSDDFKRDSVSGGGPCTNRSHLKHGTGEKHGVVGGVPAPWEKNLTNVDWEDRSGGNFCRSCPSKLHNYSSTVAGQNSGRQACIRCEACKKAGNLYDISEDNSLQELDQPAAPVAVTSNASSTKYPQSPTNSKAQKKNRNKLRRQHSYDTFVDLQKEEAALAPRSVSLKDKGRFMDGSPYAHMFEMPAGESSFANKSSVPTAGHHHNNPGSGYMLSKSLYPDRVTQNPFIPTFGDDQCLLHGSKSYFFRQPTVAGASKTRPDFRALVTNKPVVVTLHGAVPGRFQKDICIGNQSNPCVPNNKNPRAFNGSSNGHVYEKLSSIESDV
EXPERIMENT_SUMMARY: Test of binding with NMDA receptor (NR1/NR2B receptor): competition with [3H]-Ifenprodil on rat cerebral cortex membrane specimen
PROTOCOL_CONDITIONS: same binding test; read-out: IC50 (binding with NR1/NR2B receptor)

Guide cases for IC50, answers given:
Give the reported value of IC50 for this record: C[C@@H]1CN(C(=O)C(=O)Nc2ccc3[nH]c(=O)oc3c2)CCN1c1ccc(Cl)c(F)c1 [Compound I-207]
≤ 0.1 µM

Read the entry C[C@@H]1CN(c2ccc(Cl)cn2)CCN1C(=O)C(=O)Nc1ccc2[nH]c(=O)oc2c1 [Compound I-241] and write its reported IC50.
≤ 0.1 µM

State its IC50: O=C(NCCC1CCN(c2ccc(OC(F)(F)F)cc2)CC1)c1ccc(=O)[nH]c1 [Compound I-230]
≤ 0.1 µM

State its IC50: O=C(Nc1ccc2[nH]c(=O)oc2c1)C(=O)N1CCN(c2cccc(Cl)c2)CC1 [Compound I-86]
≤ 0.1 µM

Using the record for O=C(C=C1CCN(c2ccc(OC(F)F)cc2)CC1)Nc1ccc2[nH]c(=O)oc2c1 [Compound I-237] , state its measured IC50.
≤ 0.1 µM

The record that follows has no IC50 shown yet.
Provide only the value of recorded IC50 for O=C(Nc1ccc2[nH]c(=O)oc2c1)C(=O)N1CCN(c2ccc(OC(F)F)cc2)CC1 [Compound I-233]
≤ 0.1 µM
